- EXPERIMENT_SUMMARY: Oligonucleotide concentration in tissues by LC-MS/MS after subcutaneous administration in beagle dogs (Example 8)
- Format: in vivo
- REPORTED_CONDITIONS: 30 mg/kg subcutaneous, 48 hours after the last dose, liver
- Experimental: There were 4 animals per group. Oligonucleotide concentrations of both ION 830025 and ION 798781 were detected in various tissues by LC-MS/MS analysis. The results are presented below, expressed as μg/g tissue. The data was collected 48 hours after the last dose.
Note to self: use Satisfied only for Full length oligonucleotide, Liver readings below 500 µg/g; a reading exactly at 500 µg/g still gets Not satisfied.

798781 (CGTAAGATTCACAGCA; 3-10-3 cEt gapmer, further chemistry not given here) [compound 798781]; Not satisfied
830121 (AGAATCAAGCCCTGGC; 3-10-3 cEt gapmer, further chemistry not given here) [compound 830121]; Satisfied
829994 (GGAGGCAGGGCCGCGA; 3-10-3 cEt gapmer, further chemistry not given here) [compound 829994]; Satisfied
830025 (antisense TTTGTAAATCGAAAGC; 3-10-3 cEt gapmer, further chemistry not given here) [compound 830025]; Satisfied
830037 (antisense CTATTGGCTGATCTGG; 3-10-3 cEt gapmer, further chemistry not given here) [compound 830037]; Not satisfied

Now for another entry.
Regarding 790615 (CCAATGAGAATGCTTC; 3-10-3 cEt gapmer, further chemistry not given here) [compound 790615] , kindly confirm whether its Full length oligonucleotide, Liver is beneath 500 µg/g. Satisfied

---

- EXPERIMENT_SUMMARY: Blood chemistry markers after oral gavage in CD-1 mice (Example 7)
- Type: in vivo
- REPORTED_CONDITIONS: 500 mg/kg oral gavage once daily for 4 weeks, day 30
- Procedure: The objective of this study was to evaluate the tolerability and pharmacodynamics of select Ionis human SMAD7 antisense oligonucleotides in CD-1 mice following 4 weeks of treatment. The mice were administered oligonucleotides by oral gavage. Groups of 7-8 week old male CD-1 mice were given an oral gavage dose once daily for 4 weeks of 500 mg/kg of Ionis SMAD7 oligonucleotides. […] Levels of transaminases, albumin, and BUN were measured using a Toshiba 200FR NEO chemistry analyzer (Toshiba Co., Japan).
Would you kindly list Bilirubin for each of these substances?
Answers are plain numbers, in mg/dL.

829994 (GGAGGCAGGGCCGCGA; 3-10-3 cEt gapmer, further chemistry not given here) [compound 829994]; 0.3

For each listed entry, give its Bilirubin.
1. 830121 (AGAATCAAGCCCTGGC; 3-10-3 cEt gapmer, further chemistry not given here) [compound 830121]
2. 830025 (antisense TTTGTAAATCGAAAGC; 3-10-3 cEt gapmer, further chemistry not given here) [compound 830025]

[0.2, 0.2]

---

- System: human SMAD7 mRNA
- EXPERIMENT_SUMMARY: Antisense inhibition of human SMAD7 mRNA expression in Hep3B cells by 5-10-5 MOE gapmers, single concentration, electroporation, RT-PCR (Example 1, Study 1 and 2)
- Assay type: cell-based
- REPORTED_CONDITIONS: electroporation, 15,000 nM, approximately 24 hours, relative to untreated control cells, gapmers targeting SEQ ID NO: 1 and 2
Strand notation (5' to 3'): a small letter for the sugar, then the base; units joined by * are phosphorothioate-linked, units joined directly phosphodiester-linked; [ ] holds rarer units or linkages, { } end groups; capitals alone tell only the bases. e = 2'-O-(2-methoxyethyl) (MOE); [5mC] = 5-methylcytosine; d = 2'-deoxy (DNA)
Please respond with reported % inhibition of SMAD7 mRNA expression for every item in the list.
Answers are plain numbers, in %.

771837 (antisense eA*eG*eT*eG*eT*dT*dG*dA*dG*dG*dA*d[5mC]*dT*d[5mC]*d[5mC]*e[5mC]*e[5mC]*eA*eG*e[5mC]) [compound 771837]; 48
771781 (antisense eA*eA*eA*eA*eA*dA*dA*dG*d[5mC]*d[5mC]*d[5mC]*dA*d[5mC]*d[5mC]*d[5mC]*eA*eT*e[5mC]*eG*eG) [compound 771781]; 10
771709 (antisense eT*eG*eA*eA*e[5mC]*d[5mC]*d[5mC]*dT*d[5mC]*dA*d[5mC]*dA*dT*d[5mC]*dA*e[5mC]*eA*e[5mC]*eT*e[5mC]) [compound 771709]; 38
771589 (antisense eT*eG*eG*eA*e[5mC]*dA*dG*dG*d[5mC]*d[5mC]*d[5mC]*dG*dT*dG*dT*e[5mC]*e[5mC]*eT*eT*eG) [compound 771589]; 51
771685 (antisense e[5mC]*eT*eT*eT*eT*dT*dT*dA*dA*dT*dT*dT*dG*dG*d[5mC]*eA*eT*eT*eT*eG) [compound 771685]; 17
771517 (antisense e[5mC]*eT*e[5mC]*eA*eG*dG*dA*dG*dG*dA*dA*dA*dA*dT*dA*eT*eT*eA*eG*e[5mC]) [compound 771517]; 25
771621 (antisense eA*e[5mC]*eA*e[5mC]*eA*d[5mC]*dA*dG*dG*dA*dT*dG*dG*dG*dA*eG*e[5mC]*eA*eG*eG) [compound 771621]; 36
771829 (antisense eT*eG*eT*eG*e[5mC]*d[5mC]*dT*d[5mC]*dA*dG*d[5mC]*dA*dG*dT*dT*eA*eA*eT*eA*eA) [compound 771829]; 14

The following substances each have a reported value; give each one's % inhibition of SMAD7 mRNA expression.
1. 771645 (antisense eG*eT*eT*eG*eT*dA*dG*dA*dA*dG*dA*dA*dA*dT*dG*eA*eA*eA*eG*eA) [compound 771645]
2. 771949 (antisense eA*eG*eA*eT*e[5mC]*dT*dT*dT*d[5mC]*dA*dA*d[5mC]*dT*dG*dG*eA*eT*eG*eG*eA) [compound 771949]

1: 38; 2: 26

Here are 3 substances. What values of % inhibition of SMAD7 mRNA expression were reported for them?
1. 771669 (antisense eT*eT*eT*e[5mC]*eT*d[5mC]*dT*d[5mC]*dT*d[5mC]*dA*dA*dA*dG*d[5mC]*eA*e[5mC]*eT*eA*e[5mC]) [compound 771669]
2. 771733 (antisense eT*eG*eA*e[5mC]*eA*dG*d[5mC]*d[5mC]*dA*d[5mC]*dA*dA*dG*dT*d[5mC]*eA*e[5mC]*eA*eA*e[5mC]) [compound 771733]
3. 771502 (antisense e[5mC]*eG*e[5mC]*eT*e[5mC]*dT*dG*dT*d[5mC]*d[5mC]*d[5mC]*d[5mC]*dT*d[5mC]*d[5mC]*eG*e[5mC]*eA*e[5mC]*eG) [compound 771502]

1. 55
2. 75
3. 48

Value sought for every listed substance: % inhibition of SMAD7 mRNA expression.
1. 771805 (antisense eG*eA*eT*eT*eA*dT*dA*dT*dA*dG*dG*dT*dA*dT*dT*eT*eT*eT*eG*eA) [compound 771805]
2. 771741 (antisense eG*eG*eT*e[5mC]*eT*d[5mC]*dA*d[5mC]*d[5mC]*dT*dT*dA*dG*dG*d[5mC]*e[5mC]*eT*eG*eT*eG) [compound 771741]

1: 0; 2: 53

Would you mind listing % inhibition of SMAD7 mRNA expression for each of the following substances?
1. 771565 (antisense e[5mC]*eT*eG*e[5mC]*e[5mC]*dG*d[5mC]*dT*d[5mC]*d[5mC]*dT*dG*d[5mC]*dA*d[5mC]*eA*e[5mC]*eG*e[5mC]*eG) [compound 771565]
2. 771677 (antisense eT*eT*eT*e[5mC]*eT*dT*dG*dT*dT*dT*dA*dT*dA*d[5mC]*dA*e[5mC]*eA*eT*eT*eG) [compound 771677]
3. 771909 (antisense e[5mC]*eA*eG*eG*e[5mC]*dT*d[5mC]*d[5mC]*d[5mC]*dT*dG*dT*dG*d[5mC]*d[5mC]*eA*eA*eT*e[5mC]*eA) [compound 771909]

[55, 21, 52]

Quick one: give me % inhibition of SMAD7 mRNA expression for each item below, same order please.
1. 771478 (antisense e[5mC]*eA*e[5mC]*e[5mC]*eT*dT*dG*dT*dG*dT*dA*d[5mC]*d[5mC]*dA*dA*e[5mC]*eA*eG*e[5mC]*eG) [compound 771478]
2. 771933 (antisense eA*eT*e[5mC]*eG*eA*dG*dG*dT*dG*d[5mC]*d[5mC]*d[5mC]*d[5mC]*d[5mC]*dA*eT*eG*e[5mC]*e[5mC]*eA) [compound 771933]
3. 771406 (antisense eG*eA*eG*e[5mC]*eG*dA*dA*d[5mC]*dA*dT*dG*dA*d[5mC]*d[5mC]*dT*e[5mC]*e[5mC]*eG*e[5mC]*eA) [compound 771406]

53
31
55
